- System: HTT mRNA
- assayComment: Splicing RT-qPCR assay, HTT canonical (CJ) and alternative (AJ) junction mRNA
- Format: cell-based, human
- testContext: Homo sapiens, A673 or K562 cells, 24 hours compound treatment, read-out: HTT AJ (AC50, increase in alternative junction mRNA)
Recorded AC50 for the following compounds

Use these answered entries as a reference point.
In [3]: df
Out[3]:
                                   compound  experimentalreadout     reading
0  CCn1cc2c(N3C[C@@H](F)[C@H](NC)C3)ccc(C(=O)Nc3cc(F)c4nc(C)cn4c3)c2n1 [Compound 584]                 AC50  1 to 10 µM
1  Cc1cn2cc(NC(=O)c3ccc(N4CCC(NCc5ccccn5)CC4)c4cn(C)nc34)cc(F)c2n1 [Compound 347]                 AC50  1 to 10 µM
2  Cc1cn2cc(NC(=O)c3ccc(N4CCNCC4)c4cn(CC5(O)CC5)nc34)cc(F)c2n1 [Compound 358]                 AC50     > 10 µM

Query Cc1cn2cc(NC(=O)c3ccc(N4CCC5(CCN5)C4)c4cn(C)nc34)cc(F)c2n1 (centres unmarked) [Compound 299] yields AC50 of > 10 µM

Query CCn1cc2c(N3C[C@H]4CC[C@@H](C3)N4)ccc(C(=O)Nc3cc(F)c4nc(C)cn4c3)c2n1 [Compound 289] yields AC50 of > 10 µM

* * *

Recorded IC50 for the following compounds
- Test system: MYB mRNA
- assayComment: Splicing RT-qPCR assay, MYB canonical (CJ) and alternative (AJ) junction mRNA
- Assay type: cell-based, human
- testContext: Homo sapiens, 24 h, A673 or K562 cells, 24 hours compound treatment, RT-qPCR; read-out: MYB CJ (IC50, decrease in canonical junction mRNA)
Structures can show the parent of a compound that is named as a salt.

Use these answered entries as a reference point.
>>> print(df.to_string())
                                   compound       tgt  experimentalreadout           reading
0  CC1=CC2=NC(C)=NC2C=C1NC(=O)c1ccc(N2CCNCC2)c2cn(C)nc12 (centres unmarked)  MYB mRNA                 IC50    100 to 1000 nM
1  CCNC1CCN(c2ccc(C(=O)Nc3cc(F)c4nc(C)cn4c3)c3nn(CC)cc23)CC1  MYB mRNA                 IC50          < 100 nM
2  Cc1cn2nc(NC(=O)c3ccc(N4CCNCC4)c4cc(C)oc34)cc(C)c2n1  MYB mRNA                 IC50  1000 to 10000 nM

Query Cn1cc2cc(NC(=O)c3ccc(N4CCNCC4)c4cn(C)nc34)ccc2n1 [Compound 324, hydrochloride] yields IC50 of 100 to 1000 nM

Query Cc1nc2c(F)cc(NC(=O)c3ccc(N4CCNCC4)c4cn(C)nc34)cc2s1 yields IC50 of 100 to 1000 nM

Query CCn1cc2c(N3CC[C@](C)(NC)C3)ccc(C(=O)Nc3cc(F)c4nc(C)cn4c3)c2n1 yields IC50 of > 10000 nM

Query Cc1cn2cc(NC(=O)c3ccc(N4CCC(C)(N)CC4)c4cn(C)nc34)cc(F)c2n1 yields IC50 of < 100 nM

Query COCCn1cc2c(N3CCNCC3)ccc(C(=O)Nc3cn4cc(C)nc4c(OC)n3)c2n1 yields IC50 of 100 to 1000 nM

Query Cc1cn2cc(NC(=O)c3ccc(N4CC5(CN(C)C5)C4)c4cc(C)oc34)cc(F)c2n1 yields IC50 of 100 to 1000 nM

Query Cc1cn2cc(NC(=O)c3ccc(N4CCC(NC(C)(C)C)CC4)c4cc(C)oc34)cc(F)c2n1 yields IC50 of 1000 to 10000 nM

Query CCn1cc2c(N3C[C@@H](F)[C@H](NC)C3)ccc(C(=O)Nc3cc(F)c4nc(C)cn4c3)c2n1 yields IC50 of 100 to 1000 nM

Query Cn1cc2c(N3CCNCC3)ccc(C(=O)Nc3cn[nH]c3)c2n1 yields IC50 of > 10000 nM

Query COCCOc1nc2c(C(=O)Nc3cc(F)c4nc(C)cn4c3)ccc(N3CCNCC3)c2o1 yields IC50 of > 10000 nM

Query CCn1cc2c(N3C[C@H]4CC[C@@H](C3)N4)ccc(C(=O)Nc3cc(F)c4nc(C)cn4c3)c2n1 yields IC50 of 100 to 1000 nM

Query CCNC1CCN(c2ccc(C(=O)Nc3cc(F)c4nc(C)cn4c3)c3nn(CC)cc23)C1 (stereo in doubt) [Compound 400] yields IC50 of < 100 nM

Query CCn1cc2c(N(C)C3CCNCC3)ccc(C(=O)Nc3cc(F)c4nc(C)cn4c3)c2n1 yields IC50 of 100 to 1000 nM

Query CN[C@@H]1CCN(c2ccc(C(=O)Nc3cn4cc(C)nc4c(Cl)n3)c3nn(C)cc23)C1 yields IC50 of 100 to 1000 nM

* * *

- Test system: HTT mRNA
- assayComment: Splicing RT-qPCR assay, HTT canonical (CJ) and alternative (AJ) junction mRNA
- Format: cell-based, human
- testContext: Homo sapiens, A673 or K562 cells, 24 hours compound treatment, read-out: HTT AJ (AC50, increase in alternative junction mRNA)
Counter-ions that a name gives are not always drawn.
experimentalReadout: AC50

>>> df
                                   compound      reading
0  Cc1cn2cc(NC(=O)c3ccc(N4CCC(NC(C)(C)C)CC4)c4cn(C)nc34)cc(F)c2n1   1 to 10 µM
1  CCN1CCC(c2ccc(C(=O)Nc3cc(F)c4nc(C)cn4c3)c3nn(C)cc23)CC1  0.1 to 1 µM
2  Cc1cn2cc(NC(=O)c3ccc(N4CCNCC4)c4cn(C)nc34)cc(C#N)c2n1 [Compound 314, hydrochloride]   1 to 10 µM
3  Cc1cn2cc(NC(=O)c3ccc(N4CC[C@@H](NCC5(O)CC5)C4)c4cn(C)nc34)cc(F)c2n1      > 10 µM
4  Cc1nnc2ccc(NC(=O)c3ccc(N4CCNCC4)c4cn(C)nc34)cn12      > 10 µM

Then there is this compound:
Query CCn1cc2c(N3CC[C@@H](N(C)C)C3)cc(O)c(C(=O)Nc3cc(F)c4nc(C)cn4c3)c2n1 yields AC50 of 1 to 10 µM

* * *

- Test system: MYB mRNA
- assayComment: Splicing RT-qPCR assay, MYB canonical (CJ) and alternative (AJ) junction mRNA
- Assay type: cell-based, human
- testContext: Homo sapiens, 24 h, A673 or K562 cells, 24 hours compound treatment, RT-qPCR; read-out: MYB AJ (AC50, increase in alternative junction mRNA)
Recorded AC50 for the following compounds

Query Cc1cn2cc(NC(=O)c3ccc(N(C)C4CC(C)(C)NC(C)(C)C4)c4cc(C)oc34)cc(F)c2n1 [Compound 201] yields AC50 of > 10000 nM

* * *

- Test system: HTT mRNA
- assayComment: Splicing RT-qPCR assay, HTT canonical (CJ) and alternative (AJ) junction mRNA
- Format: cell-based, human
- testContext: Homo sapiens, A673 or K562 cells, 24 hours compound treatment, read-out: HTT AJ (AC50, increase in alternative junction mRNA)
Recorded AC50 for the following molecules

Use these answered entries as a reference point.
>>> print(df.to_string())
                                   molecule       tgt         reading
0  Cc1cn2cc(NC(=O)c3ccc(C4CCN(C)CC4)c4cn(C)nc34)cc(F)c2n1  HTT mRNA  100 to 1000 nM
1  CO[C@H]1C[C@H](n2cc3c(N4CCNCC4)ccc(C(=O)Nc4cc(F)c5nc(C)cn5c4)c3n2)C1  HTT mRNA      > 10000 nM

Query Cc1nc2c(F)cc(NC(=O)c3ccc(N4CCNCC4)c4cn(C)nc34)cc2s1 yields AC50 of 1000 to 10000 nM

Query Cc1cn2cc(NC(=O)c3ccc(N4CCNCC4)c4cn(C)nc34)nc(C)c2n1 yields AC50 of 100 to 1000 nM

Query Cc1cn2cc(NC(=O)c3c(F)cc(N4CCC(N(C)C)C4)c4cn(C)nc34)cc(F)c2n1 (stereo in doubt) [Compound 464] yields AC50 of 100 to 1000 nM

* * *

Recorded AC50 for the following molecules
- System: HTT mRNA
- assayComment: Splicing RT-qPCR assay, HTT canonical (CJ) and alternative (AJ) junction mRNA
- Format: cell-based, human
- testContext: Homo sapiens, A673 or K562 cells, 24 hours compound treatment, read-out: HTT AJ (AC50, increase in alternative junction mRNA)

Use these answered entries as a reference point.
                                   molecule  experimentalreadout     reading
0  Cc1cn2cc(NC(=O)c3ccc(N4CC5(CNC5)C4)c4cn(C)nc34)cc(F)c2n1                 AC50  1 to 10 µM
1  CCn1cc2c(N3CCN(C)CC3)cc(F)c(C(=O)Nc3cc(F)c4nc(C)cn4c3)c2n1                 AC50  1 to 10 µM
2  Cc1cc2c(N3CCNCC3)ccc(C(=O)Nc3cc(F)c4cn(C)nc4c3)c2o1                 AC50     > 10 µM
3  Cc1cn2cc(NC(=O)c3ccc(N4CCC(N(C)C)C4)c4cn(C)nc34)cc(Cl)c2n1 (centres unmarked)                 AC50  1 to 10 µM
4  CCn1cc2c(N3CC[C@@H](NC4CC4)C3)ccc(C(=O)Nc3cc(F)c4nc(C)cn4c3)c2n1                 AC50     > 10 µM

Query CCn1cc2c(N(C)C3C[C@H]4CC[C@@H](C3)N4)ccc(C(=O)Nc3cc(F)c4nc(C)cn4c3)c2n1 (some centres unmarked) yields AC50 of > 10 µM

Query Cc1cn2cc(NC(=O)c3ccc(N4CCC5(CCCN5)CC4)c4cn(C)nc34)cc(F)c2n1 yields AC50 of 0.1 to 1 µM

Query CCn1cc2c(N3CC[C@@H](NC)C3)ccc(C(=O)Nc3cc(F)c4nc(C)cn4c3)c2n1 yields AC50 of > 10 µM

Query CNc1cc(N2CCNCC2)c2cn(C)nc2c1C(=O)Nc1cc(F)c2nc(C)cn2c1 yields AC50 of > 10 µM

Query Cc1cn2cc(NC(=O)c3ccc(N4CC[C@@H](NC5CC(O)C5)C4)c4cn(C)nc34)cc(F)c2n1 (some centres unmarked) yields AC50 of 1 to 10 µM

Query Cc1cn2cc(NC(=O)c3ccc(N4CC[C@@H](NCc5cnc(Cl)nc5)C4)c4cn(C)nc34)cc(F)c2n1 yields AC50 of > 10 µM
